- target desc: human muscle nAChR subtype (TE671/RD cells) (Homo sapiens, UniProt P02708+P07510+Q07001)
- Construct: These cells express receptors that have pharmacological; endogenous in cells; host or cells: TE671/RD (human embryonal rhabdomyosarcoma)
- Sequence (P02708 21-457): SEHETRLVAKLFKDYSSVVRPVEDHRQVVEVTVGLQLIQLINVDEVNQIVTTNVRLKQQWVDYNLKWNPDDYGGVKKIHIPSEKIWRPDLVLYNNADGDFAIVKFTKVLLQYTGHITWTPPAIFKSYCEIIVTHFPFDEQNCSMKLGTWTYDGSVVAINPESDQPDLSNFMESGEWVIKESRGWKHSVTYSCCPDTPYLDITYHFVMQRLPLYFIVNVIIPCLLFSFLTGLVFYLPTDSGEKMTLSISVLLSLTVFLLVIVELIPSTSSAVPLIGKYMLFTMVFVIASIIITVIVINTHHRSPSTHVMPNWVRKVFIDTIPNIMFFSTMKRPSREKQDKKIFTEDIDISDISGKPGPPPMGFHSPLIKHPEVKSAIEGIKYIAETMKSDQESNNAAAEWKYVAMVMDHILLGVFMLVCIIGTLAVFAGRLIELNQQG
- Sequence (P11230 24-501 partner): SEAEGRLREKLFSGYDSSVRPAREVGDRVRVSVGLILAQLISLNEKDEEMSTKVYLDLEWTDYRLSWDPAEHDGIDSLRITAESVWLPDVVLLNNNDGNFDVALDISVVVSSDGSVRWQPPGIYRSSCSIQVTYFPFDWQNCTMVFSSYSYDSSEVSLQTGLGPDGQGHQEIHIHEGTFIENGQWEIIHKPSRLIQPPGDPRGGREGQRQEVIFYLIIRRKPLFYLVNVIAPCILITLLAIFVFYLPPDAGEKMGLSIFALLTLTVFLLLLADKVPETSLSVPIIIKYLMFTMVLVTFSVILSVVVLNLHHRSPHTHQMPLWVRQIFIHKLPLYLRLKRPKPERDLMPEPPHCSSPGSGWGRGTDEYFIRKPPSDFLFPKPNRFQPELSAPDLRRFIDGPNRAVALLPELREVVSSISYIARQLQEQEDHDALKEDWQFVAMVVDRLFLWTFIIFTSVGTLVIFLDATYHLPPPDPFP
- Sequence (Q07001 22-517): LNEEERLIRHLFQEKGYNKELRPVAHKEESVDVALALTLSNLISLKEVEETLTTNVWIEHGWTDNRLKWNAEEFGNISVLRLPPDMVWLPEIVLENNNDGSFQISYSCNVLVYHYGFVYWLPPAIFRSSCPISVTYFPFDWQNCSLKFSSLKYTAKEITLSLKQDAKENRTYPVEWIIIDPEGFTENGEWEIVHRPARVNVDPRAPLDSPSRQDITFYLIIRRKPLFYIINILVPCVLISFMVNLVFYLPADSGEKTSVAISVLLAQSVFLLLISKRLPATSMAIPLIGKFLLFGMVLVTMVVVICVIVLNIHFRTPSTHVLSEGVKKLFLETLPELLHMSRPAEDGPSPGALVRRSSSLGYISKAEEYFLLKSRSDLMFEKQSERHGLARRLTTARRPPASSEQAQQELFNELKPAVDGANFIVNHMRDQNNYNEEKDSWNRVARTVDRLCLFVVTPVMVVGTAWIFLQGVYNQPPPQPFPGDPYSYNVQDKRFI
- Sequence (P07510 23-517): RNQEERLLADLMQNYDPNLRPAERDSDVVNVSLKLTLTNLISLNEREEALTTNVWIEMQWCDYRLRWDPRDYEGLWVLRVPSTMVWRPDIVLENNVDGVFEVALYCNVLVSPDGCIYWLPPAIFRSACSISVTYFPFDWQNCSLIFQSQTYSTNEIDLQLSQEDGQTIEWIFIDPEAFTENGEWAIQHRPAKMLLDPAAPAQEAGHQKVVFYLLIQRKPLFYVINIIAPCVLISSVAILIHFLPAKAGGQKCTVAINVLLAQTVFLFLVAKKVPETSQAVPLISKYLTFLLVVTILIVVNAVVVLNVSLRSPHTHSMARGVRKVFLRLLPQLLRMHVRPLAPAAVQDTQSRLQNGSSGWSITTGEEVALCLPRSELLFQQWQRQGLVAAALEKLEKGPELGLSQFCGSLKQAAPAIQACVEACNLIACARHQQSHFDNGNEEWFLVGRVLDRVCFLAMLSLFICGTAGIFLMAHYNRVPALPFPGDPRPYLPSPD
- procedure text: cell-based
- Assay type: cell-based
- condition summary: 86Rb+ efflux, TE671/RD cells; read-out: Muscle Effect EC50
measured property: pEC50
Conceptually, pEC50 converts a concentration in mol/L into minus its log10.

Incoming: Quick check: pEC50 of c1cncc(C2CC3CCN2CC3)c1 (racemic) ?
Outgoing: 7.23

====

- target desc: human muscle nAChR subtype (TE671/RD cells) (Homo sapiens, UniProt P02708+P07510+Q07001)
- Construct: These cells express receptors that have pharmacological; endogenous in cells; host or cells: TE671/RD (human embryonal rhabdomyosarcoma)
- procedure text: cell-based
- Format: cell-based
- condition summary: maximal activation as a percentage of that induced by L-nicotine
measured property: Muscle Effect Ecmax
Just the number, please, no unit after it.

Incoming: Query: Muscle Effect Ecmax; subject: c1cncc(C2CC3CCN2CC3)c1 (racemic) [Sample No. 1]
Outgoing: 110

Incoming: May I ask what Muscle Effect Ecmax has been recorded for Cl.Cl.Cl.Nc1cncc(C2CC3CCN2CC3)c1 (stereo not shown) [Sample No. 6] ?
Outgoing: 100

Incoming: What does the data say about its Muscle Effect Ecmax? Entry: CCOc1cncc(C2CC3CCN2CC3)c1.Cl.Cl (stereo not shown) [Sample No. 7]
Outgoing: 137

Incoming: # get_value(readout='Muscle Effect Ecmax', item= c1cncc([C@H]2C[C@@H]3CCN2C3)c1 (relative stereo) [Sample No. 3] )
Outgoing: 130

Incoming: Reported Muscle Effect Ecmax for c1cncc(C2C3CCN2CC3)c1 (stereo not shown) [Sample No. 5, 7-(3-pyridyl)-1-azabicyclo[2.2.1]heptane] : what is it?
Outgoing: 130

Incoming: Quick check: Muscle Effect Ecmax of c1cncc([C@@H]2C[C@@H]3CCN2C3)c1 (relative stereo) [Sample No. 4] ?
Outgoing: 130

Incoming: Given the entry Brc1cncc(C2CC3CCN2CC3)c1 (racemic) [Sample No. 2] , report its measured Muscle Effect Ecmax.
Outgoing: 133

====

Hi there, I'd appreciate the recorded Ki for every entry that follows.
- target desc: α4β2 nAChR subtype (Rattus norvegicus, UniProt P09483+P12390)
- Construct: The cerebral cortex was removed and placed in 20 volumes (weight:volume) of ice-old preparative buffer
- Sequence (P09483 31-630): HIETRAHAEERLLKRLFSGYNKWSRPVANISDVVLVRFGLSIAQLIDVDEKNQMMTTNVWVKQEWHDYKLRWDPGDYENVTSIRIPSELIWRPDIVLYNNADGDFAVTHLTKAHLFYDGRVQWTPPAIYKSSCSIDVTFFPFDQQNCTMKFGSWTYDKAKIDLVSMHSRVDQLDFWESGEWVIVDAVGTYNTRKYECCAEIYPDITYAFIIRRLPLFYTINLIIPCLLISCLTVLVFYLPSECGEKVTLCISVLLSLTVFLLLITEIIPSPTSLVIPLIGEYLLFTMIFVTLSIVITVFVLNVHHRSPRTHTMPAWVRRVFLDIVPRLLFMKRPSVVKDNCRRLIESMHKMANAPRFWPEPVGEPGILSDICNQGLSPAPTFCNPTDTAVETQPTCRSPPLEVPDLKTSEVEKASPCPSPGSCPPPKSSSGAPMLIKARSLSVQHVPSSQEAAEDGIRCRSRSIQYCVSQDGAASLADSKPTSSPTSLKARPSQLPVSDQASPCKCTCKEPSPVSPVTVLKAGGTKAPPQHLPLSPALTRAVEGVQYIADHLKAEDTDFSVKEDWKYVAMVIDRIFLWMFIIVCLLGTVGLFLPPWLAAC
- Sequence (P12390 25-500): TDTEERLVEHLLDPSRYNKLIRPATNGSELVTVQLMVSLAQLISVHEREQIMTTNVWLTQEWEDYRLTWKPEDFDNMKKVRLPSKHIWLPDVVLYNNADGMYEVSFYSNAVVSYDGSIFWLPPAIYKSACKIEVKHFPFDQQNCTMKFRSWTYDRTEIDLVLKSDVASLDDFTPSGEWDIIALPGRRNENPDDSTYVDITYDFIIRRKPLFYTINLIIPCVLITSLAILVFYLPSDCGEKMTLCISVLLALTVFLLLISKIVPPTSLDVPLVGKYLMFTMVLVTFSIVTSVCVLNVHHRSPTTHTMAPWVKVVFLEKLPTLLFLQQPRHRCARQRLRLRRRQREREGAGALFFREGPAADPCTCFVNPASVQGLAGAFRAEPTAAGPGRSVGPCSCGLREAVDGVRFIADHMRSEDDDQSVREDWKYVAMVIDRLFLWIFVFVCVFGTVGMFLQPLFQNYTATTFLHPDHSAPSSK
- procedure text: biochemical
- condition summary: inhibition of [3H]nicotine binding, rat cerebral cortex membranes
Numeric answer only, unit nM assumed.

Incoming: // query Ki value for entry c1cncc(C2C3CCN2CC3)c1 (centres unmarked) [Sample No. 5, 7-(3-pyridyl)-1-azabicyclo[2.2.1]heptane]
Outgoing: 7

Incoming: Please report the recorded Ki for Cl.Cl.Cl.Nc1cncc(C2CC3CCN2CC3)c1 (centres unmarked) [Sample No. 6, trihydrochloride] .
Outgoing: 2.6

====

Please provide measured EC50 for the entries that follow.
- System: striatal synaptosomes (dopamine release)
- procedure text: cells
- Assay type: cell-based, rat
- condition summary: rat striatal synaptosomes, [3H]dopamine release; read-out: Dopamine Release EC50
The answer is to be given in nM; state only the numeric part.

Incoming: Could you share which EC50 value was measured for Cl.Cl.Cl.Nc1cncc(C2CC3CCN2CC3)c1 (centres unmarked) [Sample No. 6, trihydrochloride] ?
Outgoing: 7

Incoming: May I ask what EC50 has been recorded for c1cncc(C2CC3CCN2CC3)c1 (racemic) ?
Outgoing: 2

====

- procedure text: physchem
measured property: logP
Format: numeric value only, no unit, no commentary.

Incoming: Reported logP for c1cncc(C2C3CCN2CC3)c1 (centres unmarked) [Sample No. 5, 7-(3-pyridyl)-1-azabicyclo[2.2.1]heptane] : what is it?
Outgoing: 0.93

Incoming: Consider the compound shown here: CCOc1cncc(C2CC3CCN2CC3)c1.Cl.Cl (centres unmarked) [Sample No. 7, dihydrochloride] What is its recorded logP?
Outgoing: 1.82

Incoming: If you can, please state the reported logP value of Brc1cncc(C2CC3CCN2CC3)c1 (racemic) [Sample No. 2] .
Outgoing: 2.05

Incoming: Can you share its logP? I mean this compound: CC(C)Oc1cncc(C2CC3CCN2CC3)c1.Cl.Cl (centres unmarked) [Sample No. 8, dihydrochloride]
Outgoing: 1.76

Incoming: Look at this compound and give its reported logP. c1cncc([C@@H]2C[C@@H]3CCN2C3)c1 (relative stereo) [Sample No. 4]
Outgoing: 0.94

Incoming: What value of measured logP is listed for c1cncc([C@H]2C[C@@H]3CCN2C3)c1 (relative stereo) [Sample No. 3] ?
Outgoing: 0.94

Incoming: Item under review: c1cncc(C2CC3CCN2CC3)c1 (racemic) [Sample No. 1] . Reported logP?
Outgoing: 1.26

Incoming: Look up logP: Cl.Cl.Cl.Nc1cncc(C2CC3CCN2CC3)c1 (centres unmarked) [Sample No. 6, trihydrochloride]
Outgoing: 0.48

====

- System: striatal synaptosomes (dopamine release)
- procedure text: cells
- Format: cell-based, rat
- condition summary: maximal activation as a percentage of that induced by L-nicotine
For each entry below, report its Dopamine Release Ecmax value.
Number only, no unit.

Incoming: Dear colleague, I am looking for the recorded Dopamine Release Ecmax of the following compound: Brc1cncc(C2CC3CCN2CC3)c1 (racemic)
Outgoing: 43

Incoming: Look up Dopamine Release Ecmax for this compound: c1cncc(C2CC3CCN2CC3)c1 (racemic)
Outgoing: 40

Incoming: So what's the measured Dopamine Release Ecmax for this one? c1cncc(C2C3CCN2CC3)c1 (stereo not shown) [Sample No. 5, 7-(3-pyridyl)-1-azabicyclo[2.2.1]heptane]
Outgoing: 93

Incoming: Look up Dopamine Release Ecmax for this compound: Cl.Cl.Cl.Nc1cncc(C2CC3CCN2CC3)c1 (stereo not shown)
Outgoing: 43

Incoming: Given the compound c1cncc([C@@H]2C[C@@H]3CCN2C3)c1 (relative stereo) , what is its reported Dopamine Release Ecmax?
Outgoing: 114

Incoming: # query: Dopamine Release Ecmax of entry CCOc1cncc(C2CC3CCN2CC3)c1.Cl.Cl (stereo not shown)
Outgoing: 40

Incoming: For the compound c1cncc([C@H]2C[C@@H]3CCN2C3)c1 (relative stereo) , what Dopamine Release Ecmax is on record?
Outgoing: 130

====

- target desc: rat ganglionic nAChR subtype (PC12 cells) (Rattus norvegicus, UniProt P04757+P12392)
- Construct: These cells express ganglion-like nAChRs; endogenous in cells; host or cells: PC12 (rat pheochromocytoma)
- Sequence (P04757 26-499): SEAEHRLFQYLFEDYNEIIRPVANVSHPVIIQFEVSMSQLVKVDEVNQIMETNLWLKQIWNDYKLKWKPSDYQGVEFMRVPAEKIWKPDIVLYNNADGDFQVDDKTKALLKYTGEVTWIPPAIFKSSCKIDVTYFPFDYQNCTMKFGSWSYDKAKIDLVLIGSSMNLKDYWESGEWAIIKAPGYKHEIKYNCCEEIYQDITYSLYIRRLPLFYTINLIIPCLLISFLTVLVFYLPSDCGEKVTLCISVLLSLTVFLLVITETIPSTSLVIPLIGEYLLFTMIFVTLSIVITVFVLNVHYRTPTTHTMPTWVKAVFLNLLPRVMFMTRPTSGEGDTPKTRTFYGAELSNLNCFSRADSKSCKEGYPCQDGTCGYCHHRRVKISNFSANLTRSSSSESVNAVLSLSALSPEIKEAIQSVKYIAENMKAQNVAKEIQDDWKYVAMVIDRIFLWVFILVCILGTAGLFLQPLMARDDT
- Sequence (P12392 21-495): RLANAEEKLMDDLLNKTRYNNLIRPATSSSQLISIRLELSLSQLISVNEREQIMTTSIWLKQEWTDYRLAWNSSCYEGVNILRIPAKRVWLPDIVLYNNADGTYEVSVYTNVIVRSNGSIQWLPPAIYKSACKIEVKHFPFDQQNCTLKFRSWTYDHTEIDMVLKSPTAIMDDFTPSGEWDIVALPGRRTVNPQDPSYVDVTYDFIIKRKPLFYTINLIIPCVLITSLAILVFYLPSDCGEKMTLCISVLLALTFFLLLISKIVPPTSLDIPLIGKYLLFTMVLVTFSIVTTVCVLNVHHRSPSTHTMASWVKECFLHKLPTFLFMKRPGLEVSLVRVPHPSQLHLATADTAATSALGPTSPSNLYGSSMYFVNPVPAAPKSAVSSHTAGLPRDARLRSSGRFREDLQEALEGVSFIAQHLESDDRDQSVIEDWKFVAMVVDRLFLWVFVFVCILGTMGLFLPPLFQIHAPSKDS
- procedure text: cell-based
- Type: cell-based
- condition summary: maximal activation as a percentage of that induced by L-nicotine
measured property: Ganglion Effect Ecmax

Incoming: Data request, read-out Ganglion Effect Ecmax, for CCOc1cncc(C2CC3CCN2CC3)c1.Cl.Cl (centres unmarked) [Sample No. 7]
Outgoing: 86

Incoming: For the compound shown here, Brc1cncc(C2CC3CCN2CC3)c1 (racemic) [Sample No. 2] , give the reported Ganglion Effect Ecmax.
Outgoing: 106

Incoming: Can you look up the measured Ganglion Effect Ecmax of c1cncc(C2CC3CCN2CC3)c1 (racemic) [Sample No. 1] for me?
Outgoing: 85

Incoming: Reported Ganglion Effect Ecmax for c1cncc([C@@H]2C[C@@H]3CCN2C3)c1 (relative stereo) [Sample No. 4] : what is it?
Outgoing: 100

Incoming: Need Ganglion Effect Ecmax, item c1cncc([C@H]2C[C@@H]3CCN2C3)c1 (relative stereo) [Sample No. 3]
Outgoing: 100

Incoming: Name the reported Ganglion Effect Ecmax value associated with the compound c1cncc(C2C3CCN2CC3)c1 (centres unmarked) [Sample No. 5, 7-(3-pyridyl)-1-azabicyclo[2.2.1]heptane]
Outgoing: 120

Incoming: Fill blank: measured Ganglion Effect Ecmax of the compound Cl.Cl.Cl.Nc1cncc(C2CC3CCN2CC3)c1 (centres unmarked) [Sample No. 6] is ____.
Outgoing: 75

Incoming: Please look up its Ganglion Effect Ecmax: CC(C)Oc1cncc(C2CC3CCN2CC3)c1.Cl.Cl (centres unmarked) [Sample No. 8]
Outgoing: 94

====

- target desc: human muscle nAChR subtype (TE671/RD cells) (Homo sapiens, UniProt P02708+P07510+Q07001)
- Construct: These cells express receptors that have pharmacological; endogenous in cells; host or cells: TE671/RD (human embryonal rhabdomyosarcoma)
- procedure text: cell-based
- Assay type: cell-based
measured property: EC50

Incoming: Please provide the recorded EC50 for Brc1cncc(C2CC3CCN2CC3)c1 (racemic) , tested on human muscle nAChR subtype (TE671/RD cells) (Homo sapiens, UniProt P02708+P07510+Q07001).
Outgoing: 3 µM

====

Field: pEC50. Provide a value for each of the compounds that follow.
- target desc: rat ganglionic nAChR subtype (PC12 cells) (Rattus norvegicus, UniProt P04757+P12392)
- Construct: These cells express ganglion-like nAChRs; endogenous in cells; host or cells: PC12 (rat pheochromocytoma)
- procedure text: cell-based
- Format: cell-based
- condition summary: 86Rb+ efflux; read-out: Ganglion Effect EC50
API: returns pEC50 as number; meaning -log10 of concentration in mol/L.

Incoming: Requested read-out: pEC50. Entry: c1cncc(C2CC3CCN2CC3)c1 (racemic)
Outgoing: 5.96

Incoming: I'd like to know its pEC50. The compound in question is Cl.Cl.Cl.Nc1cncc(C2CC3CCN2CC3)c1 (centres unmarked) [Sample No. 6, trihydrochloride]
Outgoing: 5.00
